test system: Wolbachia pipientis; test: Anti-Wolbachia Cell-Based Screen; type: functional; design: scale not given: in the data most compounds retested in dose-response had high values; conditions: 5 µM
Out of some 48,000 compounds screened, about 13,000 (27%) showed an effect of 50% or more. Some of the results follow.
Reported Percent Effect values follow for various compounds

Use these answered entries as a reference point.
Field request: Percent Effect | item: O=c1[nH]c(N2CC(O)C2)nc2c1cnn2-c1ccccc1
21.25%

Field request: Percent Effect | item: Cc1ccc(-c2cc(CN(CC(N)=O)CC(C)C)on2)cc1
-24.63%

Field request: Percent Effect | item: CCCN1CCC(NC(=O)c2csc(C)c2C)CC1
2.027%

New cases:
Field request: Percent Effect | item: Cc1cc(C)n(CC(=O)N2CCC(c3ccn4nccc4n3)CC2)n1
104.2%

Field request: Percent Effect | item: Cc1cc2nc(CO[C@H]3CN(C4CCC4)C[C@H]3F)[nH]c2cc1C
-5.771%

Field request: Percent Effect | item: O=C(NCC1(c2ccc(F)cc2)CC1)N1CCC2(CCOC2)C1 (centres undefined)
-4.934%

Field request: Percent Effect | item: Cc1cc(C)n(CCC(=O)N2CCC(c3nc(C(C)C)no3)CC2)n1
8.819%

Field request: Percent Effect | item: OCCN(Cc1cccnc1)c1ccc(Br)cn1
-12.52%

Field request: Percent Effect | item: Cc1oncc1S(=O)(=O)N1CCCC(C)(Cc2ccc3c(c2)OCO3)C1 (centres undefined)
-3.14%

Field request: Percent Effect | item: Cc1nc(O)cc(C2CCN(C(=O)CN(C)c3ccccc3)CC2)n1
-2.835%

Field request: Percent Effect | item: CCN(CC)C(=O)CN1CCCC1c1nc(C)c2c(n1)N(C)C(=O)CC2 (centres undefined)
125.7%

Field request: Percent Effect | item: NC(=O)c1cc2c(nc1CC1CCCCO1)CCC2 (centres undefined)
-20.91%
